Overview of recorded inhibition for various compounds
# System: Rat fibroblasts (CREF)
# ASSAY_PROTOCOL: Peg3 promoter luciferase inhibitors, potency, dose response, cell-based, HeLa, CREF/GAPDH counter-screen panel (AID 624167)
# RUN_CONDITIONS: CREF/GAPDH counter-screens; run 2, dose range 1, at 100 µM (top of the series)
Give the value, in units of %, as a plain number.

Use the examples below as a reference point.
INSERT INTO results (smiles_representation, quantitative_result) VALUES
  ('Cc1ccc(-c2nc(-c3ccccn3)no2)cc1Cl', 99.4),
  ('CC(=O)c1sc2c(c1OC(=O)c1ccc(Cl)cc1Cl)c(=O)n(-c1ccccc1)c(=S)n2-c1ccccc1', 61.6),
  ('Cc1ccc(OCC(=O)c2cc(C)n(Cc3ccco3)c2C)c([N+](=O)[O-])n1', -12.2),
  ('Cc1cc(C(=O)Nc2cccc(C(=O)O)c2)oc1C', 52.7),
  ('COC(=O)Cc1[nH]n(-c2nc3ccccc3s2)c(=O)c1C(C)=Nc1ccc(C)cc1', 80.2),
  ('CC1CCN(c2ccc(-c3cccs3)nn2)CC1', 96.2);

State the recorded inhibition for this entry: O=c1oc2ccccc2cc1-c1cn2ccccc2n1 93.7

---

Overview of recorded inhibition for various compounds
# MEASUREMENT_TARGET: PEG-3 (UniProt Q6IN02)
# Sequence (Q6IN02 whole entry, looked up): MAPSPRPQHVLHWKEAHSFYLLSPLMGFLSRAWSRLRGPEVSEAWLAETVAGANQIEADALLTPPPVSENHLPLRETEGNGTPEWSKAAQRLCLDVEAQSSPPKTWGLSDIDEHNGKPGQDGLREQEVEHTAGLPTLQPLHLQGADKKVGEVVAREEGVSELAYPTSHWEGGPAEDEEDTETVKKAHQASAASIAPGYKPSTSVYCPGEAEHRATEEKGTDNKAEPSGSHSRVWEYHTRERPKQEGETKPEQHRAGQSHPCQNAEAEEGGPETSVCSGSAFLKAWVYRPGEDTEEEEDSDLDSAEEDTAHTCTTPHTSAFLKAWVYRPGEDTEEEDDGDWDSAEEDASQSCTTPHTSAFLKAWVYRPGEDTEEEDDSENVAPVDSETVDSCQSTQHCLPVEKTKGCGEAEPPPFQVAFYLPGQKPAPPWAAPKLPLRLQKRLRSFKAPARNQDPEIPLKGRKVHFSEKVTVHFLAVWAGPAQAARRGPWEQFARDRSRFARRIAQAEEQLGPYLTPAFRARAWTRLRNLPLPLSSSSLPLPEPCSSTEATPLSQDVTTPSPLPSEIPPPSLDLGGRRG
# ASSAY_PROTOCOL: Peg3 promoter luciferase inhibitors, potency, dose response, cell-based, HeLa, CREF/GAPDH counter-screen panel (AID 624167)
# RUN_CONDITIONS: CREF/GAPDH counter-screens; HeLa PEG-Prom luciferase reporter, overnight, run 2, dose range 1, at 100 µM (top of the series) unless noted
Give the value, in units of %, as a plain number.

Use the examples below as a reference point.
INSERT INTO assay_data (compound, reported_metric, quantitative_result) VALUES
  ('Cc1ccc(F)cc1-c1cc2nc(NCCCN(C)C)n(C)c(=O)c2s1', 'inhibition', 99.2),
  ('CC(=O)Nc1ccc(Nc2nc(C)c([N+](=O)[O-])c(Nc3ccccc3)n2)cc1', 'inhibition', 93.4),
  ('Cc1c(C(=O)Nc2ccc(S(=O)(=O)N(C)C3CCN(C)CC3)cc2)oc2c(Cl)cccc12', 'inhibition', 99.1),
  ('O=C(Nc1ccc(S(=O)(=O)NC2=NCCCCC2)cc1)c1ccc([N+](=O)[O-])s1', 'inhibition', 101),
  ('CCN(CCN(C)C)C(=O)C1CCN(S(=O)(=O)c2c(C)noc2/C=C/c2ccccc2F)CC1', 'inhibition', 97.5);

State the recorded inhibition for this entry: O=C(Nc1ccc(-c2cn3ccsc3n2)cc1)c1ccc(F)c(S(=O)(=O)N2CCOCC2)c1 -62.2

State the recorded inhibition for this entry: CNCC[C@@H](Oc1ccc(C(F)(F)F)cc1)c1ccccc1 100

State the recorded inhibition for this entry: CCOC(=O)c1c(SCCN2CCCCC2)n(-c2ccccc2)c(=S)n(-c2ccccc2)c1=O 102

State the recorded inhibition for this entry: CCN1C=CC(=C2C(=O)c3ccccc3C2=O)C=C1 98.3

State the recorded inhibition for this entry: CN(C)c1c([N+](=O)[O-])cc(N2C(=O)C=CC2=O)cc1[N+](=O)[O-] 102

State the recorded inhibition for this entry: CC(=O)NC(c1ccc(N(C)C)cc1)c1cc(Cl)c2cccnc2c1O (configuration not stated) 88.8

These entries and their values trace back to PubChem BioAssay.
